biological target: factor Xa (Homo sapiens); construct: Human factors X, Xa, IXa, XIa, and XIIa are purchased; purchased Enzyme Research Laboratories, South Bend, Ind; test: Kass, factor Xa chromogenic substrate assay; format: biochemical; conditions: substrate N-Benzoyl-Ile-Glu-Gly-Arg-p-nitroanilide
Consider the following compounds and their measured Kass × 10^6 (L/mole) Xa readings.

- compound: "Cl.NC[C@H]1CC[C@H](CNC(=O)[C@@H]2CCCN2C(=O)[C@H](N)Cc2ccccc2)CC1 (relative stereo) [Example 12]"
  Kass × 10^6 (L/mole) Xa: "0.000042 × 10^6 L/mole"

Exercise: // query Kass × 10^6 (L/mole) Xa value for entry CCOC(=O)N[C@H](Cc1ccccc1)C(=O)N1CCC[C@H]1C(=O)NCCCCN=C(N)N.Cl [Example 3, EtOCO-D-Phe-Pro-Agm.HCl]
Key: 0.0021 × 10^6 L/mole

Exercise: What value of measured Kass × 10^6 (L/mole) Xa is listed for Cl.Cl.N=C(N)c1ccc(CNC(=O)C2CC3CCCCC3N2C(=O)C2NCCC3CCCCC32)cc1 (stereo not shown) [Example 42] ?
Key: 0.07 × 10^6 L/mole

Exercise: I am curious: what Kass × 10^6 (L/mole) Xa value has been reported for Cl.O=C(O)CN[C@H](CC1CCCCC1)C(=O)N1CCC[C@H]1C(=O)NCC1=CCNCC1 [Example 58] ?
Key: < 0.001 × 10^6 L/mole

Exercise: Which Kass × 10^6 (L/mole) Xa is reported for this compound? CCS(=O)(=O)N[C@H](Cc1ccccc1)C(=O)N1CCC[C@H]1C(=O)NCCc1cccc(N=C(N)N)c1.Cl [Example 37]
Key: < 0.009 × 10^6 L/mole

Exercise: Sample N=C(N)Nc1cccc(CCNC(=O)[C@@H]2CCCN2C(=O)[C@@H]2NCC[C@@H]3CCCC[C@@H]32)c1 [Example 41] — what was its Kass × 10^6 (L/mole) Xa?
Key: < 0.001 × 10^6 L/mole

Exercise: Requested field: Kass × 10^6 (L/mole) Xa. Item: CCS(=O)(=O)N[C@H](Cc1ccccc1)C(=O)N1CCC[C@H]1C(=O)NCc1ccc(NC(=N)N)cc1 [Example 34]
Key: < 0.001 × 10^6 L/mole

###

Target: Bovine trypsin (Bos taurus, UniProt P00760)
Construct: Bovine trypsin is purchased from Worthington Biochemicals; purchased Worthington Biochemicals, Freehold, N.J
Sequence (P00760 24-246): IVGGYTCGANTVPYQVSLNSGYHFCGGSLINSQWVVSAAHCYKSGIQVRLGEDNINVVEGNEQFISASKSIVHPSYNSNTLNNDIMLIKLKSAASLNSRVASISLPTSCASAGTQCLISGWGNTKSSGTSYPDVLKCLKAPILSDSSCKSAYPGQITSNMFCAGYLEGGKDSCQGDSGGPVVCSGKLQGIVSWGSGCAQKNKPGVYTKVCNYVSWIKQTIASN
Assay: Kass, trypsin chromogenic substrate assay
Format: biochemical
Settings: substrate N-Benzoyl-Phe-Val-Arg-p-nitroanilide
property_label: Kass × 10^6 (L/mole) Trypsin

Example molecules with recorded Kass × 10^6 (L/mole) Trypsin:
- molecule: "Cl.N=C(N)c1cc(F)c(CNC(=O)[C@@H]2CCCN2C(=O)[C@@H](CC2CCCCC2)NCC(=O)O)c(F)c1 [Example 72]"
  result: "280 × 10^6 L/mole"
- molecule: "N=C(N)c1ccc(CNC(=O)[C@@H]2CCCN2C(=O)[C@@H](CC2CCCCC2)NCCCC(=O)O)cc1 [Example 85]"
  result: "30.8 × 10^6 L/mole"
- molecule: "CCS(=O)(=O)N[C@H](Cc1ccccc1)C(=O)N1CCC[C@H]1C(=O)NCCc1ccc(C(=N)N)cc1 [Example 26]"
  result: "0.21 × 10^6 L/mole"

# evaluate next
Exercise: # lookup: Kass × 10^6 (L/mole) Trypsin of O=C(O)CN[C@H](CC1CCCCC1)C(=O)N1CCC[C@H]1C(=O)NCCCC1CCNCC1 [Example 55]
Key: 0.01 × 10^6 L/mole

###

target: t-PA (Homo sapiens); construct: purchased American Diagnostica, Greenwich, Conn; test: Kass, t-PA chromogenic substrate assay; type: biochemical; settings: substrate H-D-Ile-Pro-Arg-p-nitroanilide
Sequence (P00750 36-562): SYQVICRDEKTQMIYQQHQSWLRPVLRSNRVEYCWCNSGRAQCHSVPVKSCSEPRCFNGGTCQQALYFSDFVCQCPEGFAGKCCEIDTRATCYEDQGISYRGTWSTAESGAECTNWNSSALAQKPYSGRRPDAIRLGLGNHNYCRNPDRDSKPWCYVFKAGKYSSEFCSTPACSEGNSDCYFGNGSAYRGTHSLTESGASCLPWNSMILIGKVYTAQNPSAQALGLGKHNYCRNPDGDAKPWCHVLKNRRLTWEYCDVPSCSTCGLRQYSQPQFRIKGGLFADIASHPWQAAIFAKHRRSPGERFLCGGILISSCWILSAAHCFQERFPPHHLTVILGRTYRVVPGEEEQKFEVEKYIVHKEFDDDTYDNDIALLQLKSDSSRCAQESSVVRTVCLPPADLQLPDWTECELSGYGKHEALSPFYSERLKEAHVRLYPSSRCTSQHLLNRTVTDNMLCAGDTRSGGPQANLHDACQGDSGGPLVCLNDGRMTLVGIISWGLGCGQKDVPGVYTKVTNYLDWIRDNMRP
property_label: Kass × 10^6 (L/mole) t-PA

Sample records with Kass × 10^6 (L/mole) t-PA:
- molecule: "CCS(=O)(=O)N[C@H](Cc1ccccc1)C(=O)N1CCC[C@H]1C(=O)NCc1ccc(NC(=N)N)cc1"
  Kass × 10^6 (L/mole) t-PA: "0.01 × 10^6 L/mole"
- molecule: "Cl.O=C(O)CN[C@H](CC1CCCCC1)C(=O)N1CCC[C@H]1C(=O)NCC1=CCNCC1"
  Kass × 10^6 (L/mole) t-PA: "< 0.001 × 10^6 L/mole"
- molecule: "N=C(N)N1CCC(CCNC(=O)[C@@H]2CCCN2C(=O)[C@@H](CC2CCCCC2)NCC(=O)O)CC1"
  Kass × 10^6 (L/mole) t-PA: "< 0.001 × 10^6 L/mole"
- molecule: "Cl.Cl.N=C(N)c1ccc(CNC(=O)C2CC3CCCCC3N2C(=O)C2NCCC3CCCCC32)cc1 (centres unmarked)"
  Kass × 10^6 (L/mole) t-PA: "0.01 × 10^6 L/mole"
- molecule: "N=C(N)NCc1ccc(CNC(=O)[C@@H]2CCCN2C(=O)[C@H](N)Cc2ccccc2)cc1"
  Kass × 10^6 (L/mole) t-PA: "< 0.001 × 10^6 L/mole"
- molecule: "Cl.NCc1cccc(CNC(=O)[C@@H]2CCCN2C(=O)[C@H](N)Cc2ccccc2)c1 [Example 11, D-Phe-Pro-m-NHCH2 C6 H4 CH2 NH2.HCl]"
  Kass × 10^6 (L/mole) t-PA: "< 0.001 × 10^6 L/mole"
- molecule: "CCS(=O)(=O)N[C@H](Cc1ccccc1)C(=O)N1[C@H](C(=O)NCc2ccc(C(=N)N)cc2)C[C@@H]2CCCC[C@@H]21 (relative stereo)"
  Kass × 10^6 (L/mole) t-PA: "0.77 × 10^6 L/mole"

Let us move to another entry and its Kass × 10^6 (L/mole) t-PA.
Exercise: Notebook: pull reported Kass × 10^6 (L/mole) t-PA for t-PA (Homo sapiens), entry `CCS(=O)(=O)N[C@H](Cc1ccccc1)C(=O)N1CCC[C@H]1C(=O)NCCCc1ccc(C(=N)N)cc1`
Key: < 0.001 × 10^6 L/mole

###

Recorded measurements of Kass × 10^6 (L/mole) Xa, one per entry
target: factor Xa (Homo sapiens, UniProt P00742); construct: Human factors X, Xa, IXa, XIa, and XIIa are purchased; purchased Enzyme Research Laboratories, South Bend, Ind; assay: Kass, factor Xa chromogenic substrate assay; type: biochemical; settings: substrate N-Benzoyl-Ile-Glu-Gly-Arg-p-nitroanilide
Sequence (P00742 235-488 limits assumed): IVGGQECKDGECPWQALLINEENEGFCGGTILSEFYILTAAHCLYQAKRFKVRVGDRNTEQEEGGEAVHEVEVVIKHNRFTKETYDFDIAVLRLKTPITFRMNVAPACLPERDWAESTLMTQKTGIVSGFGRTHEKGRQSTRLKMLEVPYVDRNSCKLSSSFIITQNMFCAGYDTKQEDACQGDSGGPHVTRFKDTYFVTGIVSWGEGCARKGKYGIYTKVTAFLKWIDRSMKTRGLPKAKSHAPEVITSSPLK
Sequence (P00742 41-179 partner limits assumed): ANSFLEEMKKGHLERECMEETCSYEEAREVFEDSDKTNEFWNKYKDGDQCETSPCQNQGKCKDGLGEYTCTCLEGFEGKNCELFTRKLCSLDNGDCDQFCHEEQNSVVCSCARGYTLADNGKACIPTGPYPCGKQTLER

- molecule: "N=C(N)c1ccc(CNC(=O)[C@@H]2C[C@H](Oc3ccccc3)CN2C(=O)[C@H]2CCCCN2)cc1 (relative stereo) [Example 22]"
  Kass × 10^6 (L/mole) Xa: "0.043 × 10^6 L/mole"

Exercise: Please report the recorded Kass × 10^6 (L/mole) Xa for Cl.NCc1cccc(CNC(=O)[C@@H]2CCCN2C(=O)[C@H](N)Cc2ccccc2)c1 [Example 11, D-Phe-Pro-m-NHCH2 C6 H4 CH2 NH2.HCl] .
Key: 0.000068 × 10^6 L/mole

Exercise: Reported Kass × 10^6 (L/mole) Xa for N=C(N)Nc1ccc(CNC(=O)[C@@H]2CCCN2C(=O)[C@@H]2NCC[C@@H]3CCCC[C@@H]32)cc1 [Example 38] : what is it?
Key: < 0.001 × 10^6 L/mole

###

Measured Human Plasma Anticoagulation 2x Clotting time APTT of individual entries
test system: Human Plasma; assay: Human plasma anticoagulation, activated partial thromboplastin time (APTT); type: biochemical; conditions: concentration required to double the clotting time

Solved entries:
- compound: "CCS(=O)(=O)N[C@H](Cc1ccccc1)C(=O)N1CCC[C@H]1C(=O)NCCc1cccc(C(=N)N)c1.Cl"
  result: "27,800 ng/mL"
- compound: "CCS(=O)(=O)N[C@H](Cc1ccccc1)C(=O)N1[C@H](C(=O)NCc2ccc(C(=N)N)cc2)C[C@@H]2CCCC[C@@H]21 (relative stereo)"
  result: "200 ng/mL"

Exercise: Returns the measured Human Plasma Anticoagulation 2x Clotting time APTT for the input compound. Input: `N=C(N)Nc1cccc(CCNC(=O)[C@@H]2CCCN2C(=O)[C@@H]2NCC[C@@H]3CCCC[C@@H]32)c1`
Key: > 91,000 ng/mL

###

tested on: Human Plasma; assay: Human plasma anticoagulation, activated partial thromboplastin time (APTT); format: biochemical; conditions: concentration required to double the clotting time
property_label: Human Plasma Anticoagulation 2x Clotting time APTT

# count of solved cases: 4
- compound: "CCS(=O)(=O)N[C@H](Cc1ccccc1)C(=O)N1CCC[C@H]1C(=O)NCc1cccc(NC(=N)N)c1"
  result: "> 91,000 ng/mL"
- compound: "Nc1ccc(CNC(=O)[C@@H]2CCCN2C(=O)[C@@H](CC2CCCCC2)NCC(=O)O)cc1F"
  result: "1,600 ng/mL"
- compound: "NCC1CCC(CNC(=O)[C@@H]2CCCN2C(=O)[C@@H](CC2CCCCC2)NCC(=O)O)CC1 (stereo partly shown)"
  result: "1,700 ng/mL"
- compound: "Cl.N=C(N)N1CCC(CNC(=O)[C@@H]2CCCN2C(=O)[C@@H](CC2CCCCC2)NCC(=O)O)CC1"
  result: "160 ng/mL"

Exercise: Reported Human Plasma Anticoagulation 2x Clotting time APTT, compound Cl.O=C(O)CNC(CC1CCCCC1)C(=O)N1CCCC1C(=O)NCCC1CCNCC1 (stereo not shown) : ____
Key: 3,300 ng/mL

Exercise: So what does the record say about Human Plasma Anticoagulation 2x Clotting time APTT for `CCS(=O)(=O)N[C@H](Cc1ccccc1)C(=O)N1CCC[C@H]1C(=O)NCc1ccc(NC(=N)N)cc1` ?
Key: 4,900 ng/mL

Exercise: What value of measured Human Plasma Anticoagulation 2x Clotting time APTT is listed for Cl.Cl.N=C(N)c1ccc(CNC(=O)C2CC3CCCCC3N2C(=O)C2NCCC3CCCCC32)cc1 (stereo not shown) ?
Key: 270 ng/mL

The origin of these recorded values is patent US5705487A.
